target: rBIIa/beta 1 sodium channels (Rattus norvegicus, UniProt P04775); assay: Electrophysiological assay, two-electrode voltage clamp in Xenopus oocytes; settings: apparent inhibition constant from single point inhibition data; inactivated-state voltage protocol; channels expressed in Xenopus oocytes; read-out: RBIIA/β1 Ki
Would you kindly list Ki for each of these compounds?
Output spec: scalar in µM, unitless text.

Lookup: Kindly state the measured Ki obtained for NC(=O)c1ccnc(-c2ccc(-c3ccccc3)cc2)c1 [2-(2-phenylphenyl)pyridine-4-carboxamide, 2-(4-Phenylphenyl)pyridine-4-carboxamide] with rBIIa/beta 1 sodium channels (Rattus norvegicus, UniProt P04775).
Found: 24.9

Lookup: Kindly state the measured Ki obtained for `NC(=O)c1ccc(-c2ccc(C(F)(F)F)cc2)nc1` with rBIIa/beta 1 sodium channels (Rattus norvegicus, UniProt P04775).
Found: 24.7

Lookup: Kindly state the measured Ki obtained for `CC(C)(C)c1ccc(-c2cc(C(N)=O)ccn2)cc1` with rBIIa/beta 1 sodium channels (Rattus norvegicus, UniProt P04775).
Found: 53.1

Lookup: Kindly state the measured Ki obtained for `O=C(NCCN1CCCCC1)c1cncc(-c2ccc(Oc3ccc(F)cc3)cc2)c1` with rBIIa/beta 1 sodium channels (Rattus norvegicus, UniProt P04775).
Found: 0.78

Lookup: Kindly state the measured Ki obtained for `CCCCc1ccc(-c2ccc(C(N)=O)cn2)cc1` with rBIIa/beta 1 sodium channels (Rattus norvegicus, UniProt P04775).
Found: 24.5

---

target: rBIIa/beta 1 sodium channels (Rattus norvegicus, UniProt P04775); experiment: Electrophysiological assay, two-electrode voltage clamp in Xenopus oocytes; conditions: apparent inhibition constant from single point inhibition data; inactivated-state voltage protocol; channels expressed in Xenopus oocytes; read-out: RBIIA/β1 Ki
Values of Ki strictly less than 30 µM map to condition met, and values of at least 30 µM map to condition not met.

Lookup: hey, is Ki for `CC(C)(C)c1ccc(-c2cncc(C(N)=O)c2)cc1` lower than 30 µM or not?
Found: condition met

Lookup: hey, is Ki for `NC(=O)c1ccnc(-c2ccc(OC(F)(F)F)cc2)c1` lower than 30 µM or not?
Found: condition met

Lookup: hey, is Ki for `NC(=O)c1ccnc(-c2ccc(Oc3ccccc3)cc2)c1` lower than 30 µM or not?
Found: condition met

Lookup: hey, is Ki for `CC(C)(C)c1ccc(-c2ccc(C(N)=O)cn2)cc1` lower than 30 µM or not?
Found: condition not met

---

target: rBIIa/beta 1 sodium channels (Rattus norvegicus, UniProt P04775); assay: Electrophysiological assay, two-electrode voltage clamp in Xenopus oocytes; settings: apparent inhibition constant from single point inhibition data; inactivated-state voltage protocol; channels expressed in Xenopus oocytes; read-out: RBIIA/β1 Ki
Values of Ki strictly less than 30 µM map to class 1, and values of at least 30 µM map to class 0.

Lookup: hey, is Ki for `COc1ccc(-c2cncc(C(N)=O)c2)cc1` lower than 30 µM or not?
Found: class 0

Lookup: hey, is Ki for CCOc1ccc(-c2cc(C(N)=O)ccn2)cc1 [2-(4-ethoxyphenyl)pyridine-4-carboxamide, 2-(4-Ethoxyphenyl)pyridine-4-carboxamide] lower than 30 µM or not?
Found: class 1

Lookup: hey, is Ki for `NC(=O)c1ccc(-c2ccc(OC(F)(F)F)cc2)nc1` lower than 30 µM or not?
Found: class 0

Lookup: hey, is Ki for `COc1ccc(-c2ccc(C(N)=O)cn2)cc1` lower than 30 µM or not?
Found: class 0

Lookup: hey, is Ki for `NC(=O)c1cncc(-c2ccc(C(F)(F)F)cc2)c1` lower than 30 µM or not?
Found: class 1

Lookup: hey, is Ki for `O=C(NCCN1CCCCC1)c1ccc(-c2ccc(Oc3ccc(F)cc3)cc2)nc1` lower than 30 µM or not?
Found: class 1

Lookup: hey, is Ki for `NC(=O)c1ccc(-c2ccc(Oc3ccccc3)cc2)nc1` lower than 30 µM or not?
Found: class 1

Lookup: hey, is Ki for `CC(C)c1ccc(-c2cc(C(N)=O)ccn2)cc1` lower than 30 µM or not?
Found: class 0

Lookup: hey, is Ki for `CCCCc1ccc(-c2cc(C(N)=O)ccn2)cc1` lower than 30 µM or not?
Found: class 0

Lookup: hey, is Ki for NC(=O)c1cncc(-c2ccc3ccccc3c2)c1 [5-(2-naphthyl)pyridine-3-carboxamide, 5-(2-Naphthyl)pyridine-3-carboxamide] lower than 30 µM or not?
Found: class 0

Attribution: patent US7943643B2
